Attribution: patent US20100254975A1

Target: a4b7(G629S) (human) (UniProt P13612)
Sequence (P13612 34-1032, chain 1 of 2): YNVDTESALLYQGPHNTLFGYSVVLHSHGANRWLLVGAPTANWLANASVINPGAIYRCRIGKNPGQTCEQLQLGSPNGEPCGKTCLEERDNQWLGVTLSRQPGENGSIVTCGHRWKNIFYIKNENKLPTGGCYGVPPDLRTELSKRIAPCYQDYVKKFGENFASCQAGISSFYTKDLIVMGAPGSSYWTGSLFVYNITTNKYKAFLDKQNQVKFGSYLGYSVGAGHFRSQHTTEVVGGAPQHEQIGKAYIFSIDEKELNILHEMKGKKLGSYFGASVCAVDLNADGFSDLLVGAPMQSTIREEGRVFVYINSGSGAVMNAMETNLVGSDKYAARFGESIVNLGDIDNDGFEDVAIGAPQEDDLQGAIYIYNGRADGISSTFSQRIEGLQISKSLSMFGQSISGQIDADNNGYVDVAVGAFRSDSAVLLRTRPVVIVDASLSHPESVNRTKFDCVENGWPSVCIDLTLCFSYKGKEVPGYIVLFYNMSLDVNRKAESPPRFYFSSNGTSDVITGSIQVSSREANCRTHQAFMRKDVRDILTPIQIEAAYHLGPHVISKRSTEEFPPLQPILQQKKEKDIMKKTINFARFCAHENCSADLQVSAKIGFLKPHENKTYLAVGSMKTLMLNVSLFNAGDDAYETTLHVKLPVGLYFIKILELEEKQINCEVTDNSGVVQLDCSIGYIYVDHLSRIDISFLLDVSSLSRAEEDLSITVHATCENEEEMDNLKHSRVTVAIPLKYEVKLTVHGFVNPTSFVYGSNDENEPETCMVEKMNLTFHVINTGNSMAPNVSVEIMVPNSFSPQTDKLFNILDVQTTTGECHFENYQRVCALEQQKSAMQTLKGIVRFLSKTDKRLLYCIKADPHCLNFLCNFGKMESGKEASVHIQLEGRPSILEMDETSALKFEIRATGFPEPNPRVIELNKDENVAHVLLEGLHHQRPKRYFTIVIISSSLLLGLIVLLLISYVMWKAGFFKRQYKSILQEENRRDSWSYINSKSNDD
Sequence (P26010 20-798 G629S, chain 2 of 2, further chain): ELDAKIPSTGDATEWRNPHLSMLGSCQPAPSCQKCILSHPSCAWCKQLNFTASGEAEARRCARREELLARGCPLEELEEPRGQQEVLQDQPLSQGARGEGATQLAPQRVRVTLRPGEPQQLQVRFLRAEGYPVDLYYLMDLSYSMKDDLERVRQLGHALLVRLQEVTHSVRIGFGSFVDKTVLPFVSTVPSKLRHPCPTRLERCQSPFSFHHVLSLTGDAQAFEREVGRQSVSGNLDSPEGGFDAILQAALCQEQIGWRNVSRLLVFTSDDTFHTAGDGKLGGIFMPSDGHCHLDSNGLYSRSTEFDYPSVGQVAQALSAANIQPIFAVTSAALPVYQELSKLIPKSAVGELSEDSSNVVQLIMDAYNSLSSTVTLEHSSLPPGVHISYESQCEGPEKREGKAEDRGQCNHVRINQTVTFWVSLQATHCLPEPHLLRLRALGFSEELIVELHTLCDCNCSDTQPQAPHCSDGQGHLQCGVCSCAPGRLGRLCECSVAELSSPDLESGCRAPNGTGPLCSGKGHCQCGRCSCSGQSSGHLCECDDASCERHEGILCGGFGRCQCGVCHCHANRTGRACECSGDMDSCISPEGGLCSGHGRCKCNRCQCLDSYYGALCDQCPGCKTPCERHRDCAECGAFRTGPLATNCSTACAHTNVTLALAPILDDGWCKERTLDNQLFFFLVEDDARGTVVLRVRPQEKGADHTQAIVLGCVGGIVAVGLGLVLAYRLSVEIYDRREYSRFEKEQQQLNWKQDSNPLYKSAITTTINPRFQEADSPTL
Assay: FACS on transfected 293 cells, 1 microG/ml, PE anti-human IgG
Metric Name: fluorescence staining intensity (geometric mean)

- Binder: "26G2 (antibody, V domains shown, Fully human monoclonal from XenoMouse (human IgG2 or IgG4); kappa light chain; also called 26G2k; 26G2K) VH: QVQLVESGGGLVKPGGSLRLSCAASGFTFSDYYMSWIRQAPGKGLEWVSYISSIGSAIHYADSVKGRFTISRDNAKNSLYLQMNSLRAEDTAVYYCAREYSSGWAYFDYWGQGTLVTVSS VL: DIQMTQSPSSVSASVGDRVTITCRASQDISSWLAWYQQKPGTAPKVLIYSASSLQNGVPSRFSGRGSGTDFALTISSLQPEDFATYYCQQADSFPWTFGRGTKVEIK"
  Value Measured: 64
- Binder: "19G6 (antibody, V domains shown, Fully human monoclonal from XenoMouse (human IgG2 or IgG4); kappa light chain; also called 19G6K; 19G6H) VH: QVQLVESGGDLVKPGGSLRLSCAASGFTFSDYYMSWIRQAPGKGLEWISYISSSGSTMYYADSVKGRFTISRVNAKNSLYLQMNSLRAEDTAVYYCARDRSSGLVSFDYWGQGTLVTVSS VL: DIQMTQSPSSLSASVGDRVTISCQASQDINTYLNWYQQKPGKVPKLLIYDASNLETGVPSRFSGSGSGTDFTFTISGLQPEDIATYYCQQFDNLPITFGQGTRLEIK"
  Value Measured: 59
- Binder: "25C9 (antibody, V domains shown, Fully human monoclonal from XenoMouse (human IgG2 or IgG4); kappa light chain; also called 25C9k; 25C9K) VH: QVQLVESGGGLVKPGGSLRLSCAASGFTFNDYYMSWIRQAPGKGLEWVSYISSSGSAIHYADSVKGRFTISRDNAKNSLYLQMNSLRAEDTAVYYCAREYSSGWAYFDYWGQGTLVTVSS VL: DIQMTQSPSSVSASVGDRVTITCRASQDISSWLAWYQRKPGKAPKVLIYSASSLQSGVPSRFSGSGSGTDFTLTISSLQPEDFATYYCQQADSFPWTFGQGTKVEIK"
  Value Measured: 59
